molecular target: Serine/threonine-protein phosphatase PP1-alpha catalytic subunit (Homo sapiens); assay: inhibition of human PP1 catalytic subunit – biochemical, fluorescence, OMFP substrate, single point, counter-screen for PP5 inhibitor project, primary screen (AID 2235); conditions: purified PP1alpha, at 6.7 µM
The whole screen tested about 320,000 compounds, of which about 2,800 (0.88%) were called active.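 The calls were made as follows: active = inhibition above the mean inhibition of all tested compounds plus 3 SD, computed separately for each screening campaign (cut at about 15% in these data); inactive = the rest.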 This excerpt belongs to a sample that is enriched for actives.
Labels: active, inactive

molecule=O=C(c1ccc(Cl)nc1)N1CCN(S(=O)(=O)c2ccc3c(c2)OCCO3)CC1 class_label=inactive
molecule=Cc1ccc(-c2noc(CSc3nnnn3-c3ccccc3)n2)cc1 class_label=inactive
molecule=Fc1ccc(/C=N/n2c(COc3ccccc3)n[nH]c2=S)cc1 class_label=inactive
molecule=O=[N+]([O-])c1ccccc1/C=N/n1c(COc2ccccc2)n[nH]c1=S class_label=active
molecule=CN(C)c1ccc(/C=N/Nc2cc(N3CCOCC3)nc(N3CCOCC3)n2)cc1 class_label=inactive
molecule=Cc1ccccc1S(=O)(=O)N1[C@@H](c2cccc(Cl)c2)C(C(=O)O)=CC[C@H]1c1ccc(Cl)cc1 class_label=active
molecule=CCS(=O)(=O)C1=NSC2=NC(=O)/C(=C\c3ccc(OS(=O)(=O)c4ccccc4)cc3)C(=N)N21 class_label=inactive
molecule=CCn1c(SCC(=O)N/N=C/C=C/c2ccccc2[N+](=O)[O-])nnc1-c1ccccc1 class_label=inactive
molecule=Cc1cc(C)nc(Nc2n[nH]c(-c3ccccc3N)n2)n1 class_label=inactive
molecule=COc1ccccc1N1CCN(S(=O)(=O)c2ccc3c(c2)NC(=O)CS3)CC1 class_label=inactive
molecule="COc1ccc(C(=O)NC2(C(F)(F)F)NC(=O)N(CCCc3ccccc3)C2=O)c(OC)c1OC (stereo not given)" class_label=inactive
molecule=Cc1ccc(S(=O)(=O)N2[C@@H](c3cccc(Cl)c3)C(C(=O)O)=CC[C@H]2c2ccc(Cl)c(Cl)c2)cc1 class_label=active
molecule=CC(C)CCSc1ncnc2c1oc1nc3c(cc12)COC(C)(C)C3 class_label=inactive
molecule=CC(=O)c1c(C)[nH]c(C(=O)OCC(=O)Nc2sc3c(c2C#N)CCCC3)c1C class_label=inactive
molecule=Cc1cccc(COc2ccccc2/C=N/Nc2ccc([N+](=O)[O-])cc2)c1 class_label=inactive

Provenance of the data: PubChem BioAssay AID2235
